Data provenance: patent US20110300138A1

# target-under-test: T1, human TSH receptor (full length), coated on tubes (human, UniProt P16473 22-764)
# T1 construct: TSHR coated tubes as described in WO2004/050708A2; Exact preparation on the tubes is not detailed here; also called thyroid stimulating hormone receptor
# experiment-notes: competition with 125I-K1-18 IgG on TSHR coated tubes; 0.003 µg/mL, diluted in assay buffer
# Experimental: Binding inhibition assays were carried out using TSHR coated tubes as described in WO2004/050708A2. […] After aspiration, the tubes were washed and 100 μL of ¹²⁵I-labelled protein (5×10⁴ cpm) added and incubated for 1 hour at room temperature with shaking. The tubes were then aspirated, washed and counted in a gamma counter. Inhibition of labelled protein binding was calculated as 100×[1−(cpm bound in the presence of test material/cpm bound in the presence of control material)].
endpoint-name: Inhibition of binding (%)
Give bare numbers, in %.

Observe how each entry below is paired with its result.
binder | measure-unit | value
K1-70 Fab (Fab, V domains shown) VH: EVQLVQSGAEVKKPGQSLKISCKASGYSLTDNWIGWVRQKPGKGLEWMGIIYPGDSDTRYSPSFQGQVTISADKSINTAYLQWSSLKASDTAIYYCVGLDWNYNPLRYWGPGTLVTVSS VL: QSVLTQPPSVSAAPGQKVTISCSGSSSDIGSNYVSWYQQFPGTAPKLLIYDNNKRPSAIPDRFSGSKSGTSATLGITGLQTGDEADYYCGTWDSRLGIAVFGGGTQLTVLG | % | 4.1
K1-70 IgG (antibody, V domains shown) VH: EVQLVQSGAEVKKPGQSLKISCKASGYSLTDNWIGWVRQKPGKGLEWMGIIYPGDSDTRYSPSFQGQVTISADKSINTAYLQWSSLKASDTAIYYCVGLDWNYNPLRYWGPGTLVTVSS VL: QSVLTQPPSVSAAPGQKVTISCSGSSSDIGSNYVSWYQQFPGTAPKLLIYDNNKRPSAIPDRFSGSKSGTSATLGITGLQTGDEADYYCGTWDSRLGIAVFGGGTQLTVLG | % | 0.1
K1-18 IgG (antibody, V domains shown) VH: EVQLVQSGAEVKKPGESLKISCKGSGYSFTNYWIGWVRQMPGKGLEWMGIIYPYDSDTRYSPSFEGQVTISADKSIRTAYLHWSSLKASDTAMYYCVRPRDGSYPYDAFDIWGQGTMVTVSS VL: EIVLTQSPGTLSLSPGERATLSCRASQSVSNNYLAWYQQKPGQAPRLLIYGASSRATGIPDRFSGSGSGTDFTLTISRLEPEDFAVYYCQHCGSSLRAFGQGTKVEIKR | % | 2.9

Given item K1-18 Fab (Fab, V domains shown) VH: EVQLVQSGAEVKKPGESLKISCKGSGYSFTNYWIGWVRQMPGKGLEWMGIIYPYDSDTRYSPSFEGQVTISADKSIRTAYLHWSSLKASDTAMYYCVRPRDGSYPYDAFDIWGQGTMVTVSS VL: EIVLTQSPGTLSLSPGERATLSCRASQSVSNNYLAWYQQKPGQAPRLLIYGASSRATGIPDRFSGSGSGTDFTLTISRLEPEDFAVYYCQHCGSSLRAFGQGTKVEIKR , the value recorded as its Inhibition of binding (%) is 0.8
